Molecular target: T1, Cdc2b (Cdc2bAt) in DB-vector (A. thaliana, UniProt P04386 1-147; P25859 1-309)
T1 construct: Yeast two-hybrid DB/BD fusion
Assay: yeast two-hybrid (MaV203), X-Gal filter assay for β-galactosidase; AD construct x BD construct
ENDPOINT_NAME: binding result

BINDER	ENDPOINT_NAME	RESULT
ICDK of Chenopodium rubrum (AD construct) (other, not shown: large carriers, Yeast two-hybrid AD fusion; also called ICKCr; Chenopodium ICDK) MAAAATPTSSPAKKIKKVSKSSYNIPQLRSRRKNLSAPENFAELETTPLEVAAVVEEEEVANCSSSEVITTARSDFPPSCCSSNYDQLSSSEPEVVKDDDGLGNRTADPEVESGEASSKQKESHRTEAREATKLDDQDYPATKSTVQIKMPSDSEIEEFFAVAEKDLQKRFSEKYNFDIVKDVPLKGRYDWVPINP	binding result	no binding
ICK2 (AD construct) (other, not shown: large carriers) MAAVRRRERDVVEENGVTTTTVKRRKMEEEVDLVESRIILSPCVQATNRGGIVARNSAGASETSVVIVRRRDSPPVEEQCQIEEEDSSVSCCSTSEEKSKRRIEFVDLEENNGDDRETETSWIYDDLNKSEESMNMDSSSVAVEDVESRRRLRKSLHETVKEAELEDFFQVAEKDLRNKLLECSMKYNFDFEKDEPLGGGRYEWVKLNP	binding result	no binding
